MEASURED_ON: T1, PACAP-R3 (human, UniProt P41587 24-438)
T1 sequence (looked up): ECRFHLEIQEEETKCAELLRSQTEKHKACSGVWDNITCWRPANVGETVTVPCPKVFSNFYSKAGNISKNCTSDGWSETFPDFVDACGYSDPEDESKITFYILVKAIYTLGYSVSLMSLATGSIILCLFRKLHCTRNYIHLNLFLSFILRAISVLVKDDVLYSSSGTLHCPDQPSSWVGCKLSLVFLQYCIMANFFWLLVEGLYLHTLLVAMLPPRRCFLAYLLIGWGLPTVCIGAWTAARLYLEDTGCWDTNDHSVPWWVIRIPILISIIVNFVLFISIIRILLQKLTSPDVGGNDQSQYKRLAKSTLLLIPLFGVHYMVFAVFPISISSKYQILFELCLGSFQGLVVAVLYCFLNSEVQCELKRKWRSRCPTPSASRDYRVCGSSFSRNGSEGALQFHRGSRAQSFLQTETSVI
RUN_DESCRIPTION: cell-based or functional assay
REPORTED_ENDPOINT: R3 Selectivity
Please respond with just the number, no unit label.

Examples with answers:
{"columns": ["BINDER", "R3 Selectivity"],
 "data": [
  ["HSDAVFTDNYTRLRKQMAAKKYLNSISNKR [R3P129]", 50],
  ["HSDAVFTDNYTRLRKQMAAKKYLNSIKNKRY [R3P55]", 280],
  ["HSDAVFTDNYTRLRKQMAAKKYLNSIKNER [R3P137]", 100]
]}

For record HSDAVFTDNYTRLRKQMAAKKYLNSIKNMR [R3P143] the listed R3 Selectivity is 30

For record HSDAVFTDNYTRLRKQMAAKKYLNDIKKGGT [R3P20] the listed R3 Selectivity is 230

For record HSDAVFTDNYTRLRKQMAAKKYLNSIKKKR [R3P53] the listed R3 Selectivity is 2500

For record HSDAVFTENYTKLRKQLAAKKYLNDLKKGGT [R3P3] the listed R3 Selectivity is 130
